A collection of molecules and their measured drug sensitivity score
# System: NKL (IL-2 2.5 ng/mL)
# methodNotes: drug sensitivity score (DSS) (DSS units); higher = more sensitive; extreme values may be limits of the assay
# studyConditions: 72 h

molecule	tgt	drug sensitivity score
Cc1cc(Nc2cc(N3CCN(C)CC3)nc(Sc3ccc(NC(=O)C4CC4)cc3)n2)n[nH]1 [Tozasertib] (max concentration tested 10000 nM)	NKL (IL-2 2.5 ng/mL)	2.42
CCNC(=O)c1noc(-c2cc(C(C)C)c(O)cc2O)c1-c1ccc(CN2CCOCC2)cc1 [Luminespib] (max concentration tested 1000 nM)	NKL (IL-2 2.5 ng/mL)	26.9
COc1ccc(S(=O)(=O)Nc2cccnc2Nc2ccc(O)cc2)cc1 [ABT-751] (max concentration tested 10000 nM)	NKL (IL-2 2.5 ng/mL)	15.4
C1=N/C2=N/c3ccc(OCCN4CCCC4)c(c3)COC/C=C/COCc3cccc(c3)C(=C1)N2 [Pacritinib] (max concentration tested 10000 nM)	NKL (IL-2 2.5 ng/mL)	13.1
CC(C)N(CCCNC(=O)Nc1ccc(C(C)(C)C)cc1)C[C@H]1O[C@@H](n2cc(Br)c3c(N)ncnc32)[C@H](O)[C@@H]1O [SGC0946] (max concentration tested 10000 nM)	NKL (IL-2 2.5 ng/mL)	1.63
NC(=O)c1cccc2cn(-c3ccc([C@@H]4CCCNC4)cc3)nc12 [Niraparib] (max concentration tested 10000 nM)	NKL (IL-2 2.5 ng/mL)	16

* * *

# Test system: KHYG-1 (IL-2 2.5 ng/mL)
# methodNotes: percent inhibition of viability; higher = more inhibition
# studyConditions: 72 h; 10000 nM
Classify: rule met when percent inhibition of viability is strictly less than 80%; rule not met when percent inhibition of viability is not.

molecule	assignedCategory
O=NN(CCCl)C(=O)NC1CCCCC1 [Lomustine] (max concentration tested 10000 nM)	rule met
c1ccc([C@H]2CN3CCSC3=N2)cc1 [Levamisole] (max concentration tested 10000 nM)	rule met
CN[C@@H]1C[C@H]2O[C@@](C)([C@@H]1OC)n1c3ccccc3c3c4c(c5c6ccccc6n2c5c31)C(=O)N[C@H]4O [UCN-01] (max concentration tested 10000 nM)	rule not met
CN1CCc2c(c3ccccc3n2Cc2ccc(C(=O)NO)cc2)C1 [Tubastatin A] (max concentration tested 10000 nM)	rule met
COc1ccc(-c2ccc3c(N4CCOC[C@@H]4C)nc(N4CCOC[C@@H]4C)nc3n2)cc1CO [AZD8055] (max concentration tested 10000 nM)	rule not met
O=C(NC1CCNCC1)c1n[nH]cc1NC(=O)c1c(Cl)cccc1Cl [AT7519] (max concentration tested 10000 nM)	rule not met
NC(=O)c1cccc2cn(-c3ccc([C@@H]4CCCNC4)cc3)nc12 [Niraparib] (max concentration tested 10000 nM)	rule not met
CCN(c1cc(-c2ccc(CN3CCOCC3)cc2)cc(C(=O)NCc2c(C)cc(C)[nH]c2=O)c1C)C1CCOCC1 [E7438] (max concentration tested 10000 nM)	rule met
Nc1cccc2c1C(=O)N(C1CCC(=O)NC1=O)C2=O (stereo not drawn) [Pomalidomide] (max concentration tested 10000 nM)	rule met
Cc1c(Cn2c(C)nc3c(C(=O)O)cc(N4CCOCC4)cc32)cccc1C(F)(F)F (max concentration tested 10000 nM)	rule met
O[C@H]1CC[C@H](Nc2ncc3nc(Nc4c(F)cc(F)cc4F)n([C@H]4CCOC4)c3n2)CC1 [Tanzisertib] (max concentration tested 10000 nM)	rule met
CO[C@@]12[C@H](COC(N)=O)C3=C(C(=O)C(C)=C(N)C3=O)N1C[C@@H]1N[C@@H]12 [Mitomycin C] (max concentration tested 10000 nM)	rule not met
Cc1ccc(NC(=O)c2ccc(CN3CCN(C)CC3)cc2)cc1Nc1nccc(-c2cccnc2)n1 [Imatinib] (max concentration tested 10000 nM)	rule not met

* * *

# Test system: normal primary NK cells, pool 2 (3 donors) (IL-2 2.5 ng/mL)
# methodNotes: drug sensitivity score (DSS) (DSS units); higher = more sensitive; extreme values may be limits of the assay
# studyConditions: 72 h
readoutKind: drug sensitivity score

>>> df
                                   molecule  quantitativereadout
0  COc1cc2nccc(Oc3ccc(NC(=O)NC4CC4)c(Cl)c3)c2cc1C(N)=O [Lenvatinib] (max concentration tested 2500 nM)                 0.89
1  CON(C)C(=O)N1N=C(c2cc(F)ccc2F)S[C@@]1(CCCN)c1ccccc1 [Filanesib] (max concentration tested 1000 nM)                    0
2  Cc1cn(-c2cc(NC(=O)c3ccc(C)c(Nc4nccc(-c5cccnc5)n4)c3)cc(C(F)(F)F)c2)cn1 [Nilotinib] (max concentration tested 10000 nM)                    0
3  CNC(=O)c1nn(C)c2c1C(C)(C)Cc1cnc(Nc3ccc(N4CCN(C)CC4)cc3)nc1-2 [Milciclib] (max concentration tested 10000 nM)                 12.2
4  Cn1cc(-c2ccc3nnc(Sc4ccc5ncccc5c4)n3n2)cn1 [SGX-523] (max concentration tested 5000 nM)                 0.02
5  O=c1ncn2nc(Sc3ccc(F)cc3F)ccc2c1-c1c(Cl)cccc1Cl [VX 745] (max concentration tested 10000 nM)                 0.67

* * *

# Tested on: NKL (IL-2 2.5 ng/mL)
# methodNotes: percent inhibition of viability; higher = more inhibition
# studyConditions: 72 h; 1 nM
Entries annotated with measured percent inhibition of viability
readoutKind: percent inhibition of viability (%)

In [3]: df
Out[3]:
                                   compound                      readoutkind  quantitativereadout
0  S=C(NCc1ccc2c(c1)OCO2)N1CCN(c2ncnc3c2oc2ccccc23)CC1 [Amuvatinib] (max concentration tested 10000 nM)  percent inhibition of viability                -10.5
1  Cc1c(NC(=O)OC[C@@H]2COCCN2)cn2ncnc(Nc3ccc4c(cnn4Cc4cccc(F)c4)c3)c12 (max concentration tested 10000 nM)  percent inhibition of viability                -10.7
2  O=C(Nc1c[nH]nc1-c1nc2ccc(CN3CCOCC3)cc2[nH]1)NC1CC1 [AT9283] (max concentration tested 1000 nM)  percent inhibition of viability                -5.16
3  O=NN(CCCl)C(=O)NC1CCCCC1 [Lomustine] (max concentration tested 10000 nM)  percent inhibition of viability                  -15

* * *

# Tested on: normal primary NK cells, pool 3 (3 donors) (IL-2 2.5 ng/mL)
# methodNotes: percent inhibition of viability; higher = more inhibition
# studyConditions: 72 h; 1000 nM
Items are presented alongside their recorded percent inhibition of viability.

compound	percent inhibition of viability (%)
COc1cc2c(N3CCN(C(=O)Nc4ccc(OC(C)C)cc4)CC3)ncnc2cc1OCCCN1CCCCC1 [Tandutinib] (max concentration tested 1000 nM)	-10.6
COc1cc2nccc(Oc3ccc(NC(=O)C4(C(=O)Nc5ccc(F)cc5)CC4)cc3)c2cc1OC [Cabozantinib] (max concentration tested 1000 nM)	-3.82
Cc1nc(N)sc1-c1ccnc(Nc2ccc(N3CCOCC3)cc2)n1 [CYC-116] (max concentration tested 10000 nM)	3.35
O=NN(CCCl)C(=O)NC1CCCCC1 [Lomustine] (max concentration tested 10000 nM)	-6.32
CN(C)C[C@@H]1CCn2cc(c3ccccc32)C2=C(C(=O)NC2=O)c2cn(c3ccccc23)CCO1 [Ruboxistaurin] (max concentration tested 10000 nM)	14.8
Clc1ccccc1C(c1ccccc1)(c1ccccc1)n1cccn1 [TRAM-34] (max concentration tested 1000 nM)	6.24
CCc1cc(Nc2nccc(-c3c(-c4ccc(OC)c(C(=O)Nc5c(F)cccc5F)c4)nc4ccccn34)n2)c(OC)cc1N1CCC(N2CCN(S(C)(=O)=O)CC2)CC1 (max concentration tested 10000 nM)	-1.57
S=C(NCc1ccc2c(c1)OCO2)N1CCN(c2ncnc3c2oc2ccccc23)CC1 [Amuvatinib] (max concentration tested 10000 nM)	11.8
CC(O)(CS(=O)(=O)c1ccc(F)cc1)C(=O)Nc1ccc(C#N)c(C(F)(F)F)c1 (configuration not stated) [Bicalutamide] (max concentration tested 10000 nM)	-2.8
Cn1cc(CNCC2CCN(c3ncc(C(=O)NO)cn3)CC2)c2ccccc21 [Quisinostat] (max concentration tested 1000 nM)	97.4
CC(C)(C)Cn1c(N)nc2ccc(-c3[nH]c(C(C)(C)C)nc3-c3ccc(F)cc3)nc21 [Ralimetinib] (max concentration tested 10000 nM)	-6.16
CC(=O)[C@]1(O)Cc2c(O)c3c(c(O)c2[C@@H](O[C@H]2C[C@H](N)[C@H](O)[C@H](C)O2)C1)C(=O)c1ccccc1C3=O [Idarubicin] (max concentration tested 1000 nM)	100
